# MEASUREMENT DESCRIPTION: activity coefficient (dimensionless); of the first substance listed, at infinite dilution; xn = mol fraction of the nth substance listed
# TEST PARAMETERS: 323.15 K; Liquid; Chromatography; x1 = 0
VALUE TYPE: activity coefficient

CC(C)CCO [3-methylbutan-1-ol] + CCCCn1cc[n+](C)c1.F[B-](F)(F)F    5.08
ClC(Cl)(Cl)Cl [tetrachloromethane] + CCCCn1cc[n+](C)c1.F[B-](F)(F)F    6.27

I: CCOC(C)=O [ethyl acetate] + CCCCn1cc[n+](C)c1.F[B-](F)(F)F
II: CC#N [acetonitrile] + CCCCn1cc[n+](C)c1.F[B-](F)(F)F
III: CCCO [propan-1-ol] + CCCCn1cc[n+](C)c1.F[B-](F)(F)F
// query Order field: activity coefficient | Direction: descending (largest first) Form field (ranking): labels in requested order.
// result I, III, II
